ASSAYED SYSTEM: T1, recombinant human LIGHT-214E, FLAG-tagged extracellular domain (human)
T1 construct: Trimer; Biotinylated in some assays
T1 chain: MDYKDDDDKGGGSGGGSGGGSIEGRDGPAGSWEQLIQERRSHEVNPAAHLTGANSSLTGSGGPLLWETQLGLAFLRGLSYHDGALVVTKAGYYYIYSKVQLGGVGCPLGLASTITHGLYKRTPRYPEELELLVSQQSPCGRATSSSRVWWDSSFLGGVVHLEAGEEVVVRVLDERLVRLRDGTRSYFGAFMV
METHOD SUMMARY: HTRF competition, LTβR-Fc binding to Flag-hLIGHT-214E
Method: The following methods were carried out with a titration of inhibitor in order to establish the clone potency as measured by IC50 values in the assay. 5 μl of Flag-tagged hLIGHT (in-house) diluted to 2.5 nM final concentration (10 nM working concentration) in HTRF buffer with 5 μl of a titration of antibody purified from hybridoma supernatant diluted in HTRF assay buffer from 300 nM final (1200 nM working concentration) was pre-incubated for 1 hour at room temperature. […]
// values below are reported IC50
Response body: numeric value in nM, unit text excluded.

// worked examples, IC50 included
BINDER	UNITS	REPORTED
18E04 (purified from hybridoma supernatant, mouse IgG) (antibody, V domains shown, Murine C / human V chimeric IgG, lambda, purified from hybridoma supernatant) VH: QVLLVQSGAEVKKPGASVKVSCKASGYTFTHFDINWVRQATGQGLEWMGWMNPDSDNTDYAQEFQGRVTMTRDTSISTAYMELSSLRSEDTAVYYCARGGTTLDYWGQGTLVTVSS VL: SYELTQPPSVSVSPGQTARITCSGDALPKKYAYWYQQKSGQAPVLVIYEDSKRPSGIPERFSGSSSGTMATLTISGAQVEDEADYYCYSTDSSDNHVIFGGGTKLTVL	nM	1.64
29C09 (purified from hybridoma supernatant) (antibody, V domains shown, Murine constant / human variable chimeric IgG, lambda, Protein G purified from hybridoma supernatant) VH: QEQLVQSGAEVKKPGASVKVSCKASGYTFTSYDINWVRQATGQGLEWMGWMNPNSGYTGYAQKFQGRVTMTRNTSIRTVYMELSSLRSEDTAVYYCARGGETFDIWGQGTMVTVSS VL: SYELTQPPSVSVSPGQTARITCSGDALPKKYAYWYQQKSGQAPVLVIYEDSKRPSGIPERFSGSSSGTMATLTISGAQVEDEADYYCYSTDSSDNHSVFGTGTKVTVL	nM	1.55
13H04 (purified from hybridoma supernatant) (antibody, V domains shown, Murine constant / human variable chimeric IgG, lambda, Protein G purified from hybridoma supernatant) VH: QVQLVQSGAEVKKPGASVKVSCKASGYTFTSYGISWVRQAPGQGLEWMGWISAHNANTNYAQKLQGRVTMTTDTSTSTAYMELRSLRSDDTAMYYCARLYRNWFDPWGQGTLVTVSS VL: QSALTQPASVSGSPGQSITISCTGTSSDVGGYNYVSWYQQHPGKAPKLMIYDVSKRPSGVSNRFSGSKSGNTASLTISGLQAEDEADYYCCSYAGSSTLLFGGGTKLTVL	nM	1.97

Here is another binder to look at.
Reported IC50 for 31A10 (purified from hybridoma supernatant) (antibody, V domains shown, Murine constant / human variable chimeric IgG, kappa, Protein G purified from hybridoma supernatant) VH: QVQLQESGPGLVKPSGTLSLTCAVSGGSISSINWWNWVRQPPGKGLEWIGEVSHSGITNYNPSLKSRVTMSVDKAKNQFSLKLNSVTAADTAVYYCARERAVADYHGMDVWGQGTTVTVSS VL: AIQLTQSPSSLSASVGDRVTITCRASQGISSALAWFQQKPGKPPKLLIFDASDLESGVSSRFSGSGSGTDFTLTISSLQPGDFATYYCQQFNSYPITFGQGTRLEIK : what is it?
1.45
